# Procedure Details: growth suppression of beta-catenin knockout HCT116, pilot screen, human colon tumor cells (AID 823);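 note: 0% = wells killed by 20 µM Hyamine and 100% = untreated DMSO cell wells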
# Test Conditions: CellTiter-Glo, 60 h, at 10 µM, hits give low values
Records with an inconclusive call do not appear.
Endpoint: viability (%)
Enter your answer as a number in %; do not include the unit.

Consider the following illustrative entries.
Compound	Units Text	viability
Nc1nc2n(n1)C(c1ccc(Cl)cc1)CC(c1ccc(F)cc1)N2 (centres undefined)	%	92.5
Cc1ccc(N=C2SCCCN2C(=O)c2ccco2)cc1Cl	%	87.6
O=C(CSc1nc2c(c(=O)n1-c1ccc(Cl)cc1)SCC2)Nc1ccc2c(c1)OCCO2	%	92

(Q) Which viability reading was recorded for the compound Cc1ccc(-c2noc(CSc3nnnn3-c3ccccc3)n2)cc1 ?
(A) 88.1

----------
# Procedure Details: growth suppression of PTEN-deleted HCT116, pilot screen, cell-based, HCT116 clonal line, CellTiter-Glo (AID 824);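 note: 0% = 20 µM Hyamine control and 100% = vehicle cell control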
# Test Conditions: 60 h, at 10 µM, hits give low values
Records with an inconclusive call do not appear. Calls of active or inactive are those of the source.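 How the source made its calls: active means viability at or below 27.92% in each of two runs, the all-compound median minus 4 SD; inconclusive means no clear call, values can overlap the other calls; inactive means the rest.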
Reported viability values for the following molecules.

Recorded results for 3 molecules are shown here.
Molecule	viability
COc1ccc(CCNC(=O)c2oc3ccc(S(=O)(=O)N4CCOCC4)cc3c2C)cc1OC	78.8% (inactive)
O=C(O)CCCC(=O)N1CCN(c2cccc(Cl)c2)CC1	86.2% (inactive)
N#Cc1cccc(NC(=O)NCCc2c[nH]c3ccccc23)c1	90.2% (inactive)

(Q) Given the entry COc1ccc(C2CC(=O)C(C=NCCO)=C(O)C2)cc1OC (configuration not stated) , report its measured viability.
(A) 105% (inactive)

(Q) Can you share its viability? I mean this molecule: CC(C)(C)N1C(=O)c2ccc(C(=O)Nc3nccs3)cc2C1=O
(A) 103% (inactive)

(Q) Give the measured viability of CC(C)CC(NC(=O)C1CCC(C)CC1)C(=O)Nc1cccnc1 (configuration not stated) .
(A) 89.5% (inactive)

(Q) Consider the molecule Cc1ccc2c(CC(=O)Nc3nc(C)cs3)coc2c1 and give its measured viability.
(A) 80.4% (inactive)

----------
# Procedure Details: growth suppression of beta-catenin knockout HCT116, pilot screen, human colon tumor cells (AID 823);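 note: 0% = wells killed by 20 µM Hyamine and 100% = untreated DMSO cell wells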
# Test Conditions: CellTiter-Glo, 60 h, at 10 µM, hits give low values
Inconclusive results are not listed.
Endpoint: viability (%)
Hi! Could you send only the number? It should be in %, unit omitted.

Solved cases below.
Molecule	Units Text	viability
COC(=O)c1ccc2c(c1)N(C)CCS2	%	101
O=C(Nc1ccccc1Cl)N1CCN(c2ccccn2)CC1	%	103
O=C(NCC1COc2ccccc2O1)c1ccc(NC(=O)C2CCCO2)cc1 (centres undefined)	%	99.7
COc1ccc(N(CC(=O)NCc2ccco2)S(=O)(=O)c2c(C)nn(C)c2C)cc1	%	89.8
CCOC(=O)N1CCN(C(=O)c2oc3ccc(S(=O)(=O)N4CCCCCC4)cc3c2C)CC1	%	59.3

Alright, here's another molecule for you.
(Q) Reported viability, molecule COc1cc(C2=Nc3c(c(C)nn3-c3ccccc3)P(=O)(N3CCOCC3)O2)cc(OC)c1OC (centres undefined) : ____
(A) 92

----------
# Measured Target: Receptor tyrosine-protein kinase erbB-2 (Homo sapiens)
# Procedure Details: reducers of endogenous Her2 protein level, primary screen, SKBR3 breast tumor cells, AlphaScreen, ATP viability (AID 461);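 note: lower value means less Her2 protein in the cells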
# Test Conditions: 18-24 h, at 10 µM, hits give low values
Activity calls are given as the source filed them.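 The calls were made as follows: active = Her2 level under about 52% in both replicate screens, with viability over 70% of control (limit read from the data); inconclusive = Her2 under the limit in one screen only, or viability under 70%; inactive = Her2 level above the set limit.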
Endpoint: Her2 level

Here's what some known entries look like.
Compound	Measured Target	Her2 level
CC(C)Cn1c(=O)c(C(=O)Nc2ccccc2S(N)(=O)=O)c(O)c2ccccc21	Receptor tyrosine-protein kinase erbB-2 (Homo sapiens)	91.5% (inactive)
O=C(COc1ccccc1)NCC(c1cccs1)N1CCOCC1 (centres undefined)	Receptor tyrosine-protein kinase erbB-2 (Homo sapiens)	126% (inactive)
COC(=O)c1ccc(N2C(=O)CC(N3CCN(C(=O)c4ccco4)CC3)C2=O)cc1 (centres undefined)	Receptor tyrosine-protein kinase erbB-2 (Homo sapiens)	89.5% (inactive)
Cc1cccc2cc(CN(CC3CCCO3)C(=O)c3cnccn3)c(=O)[nH]c12 (centres undefined)	Receptor tyrosine-protein kinase erbB-2 (Homo sapiens)	105% (inactive)
O=C1CC(Cc2ccccc2)C(=O)N1CCCn1ccnc1 (centres undefined)	Receptor tyrosine-protein kinase erbB-2 (Homo sapiens)	102% (inactive)

(Q) Please report the recorded Her2 level for COc1ccccc1-n1c(SCC(N)=O)nnc1-c1ccccc1 .
(A) 97% (inactive)

(Q) Tell me the measured Her2 level of CCCCS(=O)(=O)NC1=NCN(C2CCN(Cc3ccccc3)CC2)CN1 , please.
(A) 98.5% (inactive)

(Q) What measured Her2 level goes with COC(=O)Nc1sc2c(c1C(=O)N1CCOCC1)CCC(C)C2 (centres undefined) ?
(A) 88.5% (inactive)

----------
# Measured Target: Receptor tyrosine-protein kinase erbB-2 (Homo sapiens)
# Procedure Details: reducers of endogenous Her2 protein level, primary screen, SKBR3 breast tumor cells, AlphaScreen, ATP viability (AID 461);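 note: lower value means less Her2 protein in the cells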
# Test Conditions: 18-24 h, at 10 µM, hits give low values
Endpoint: Her2 level (%)
Please reply with the bare figure in % and do not write the unit itself.

Please review the entries below; each comes with its answer.
Compound	Her2 level / %
CN(C#N)c1nc(N2CCOCC2)nc(N2CCOCC2)n1	120
CC(=O)Nc1ccc(Oc2ccc3nc(C)[nH]c3c2)cc1	93.5
CCOC(=O)CSc1nc2cc(C(=O)NCc3ccco3)ccc2c(=O)n1C1CCCCC1	83.5
CCOC(=O)C(C)Sc1nc2c(cnn2-c2ccc(C)cc2)c(=O)[nH]1 (stereo unspecified)	85.5

(Q) // Her2 level lookup, key: C=CCNS(=O)(=O)c1ccc2nsnc2c1
(A) 109

(Q) Which Her2 level value belongs to CCOCCCNC(=O)C1CCC(=O)N1CCc1ccccc1 (stereo unspecified) ?
(A) 95.5

----------
# Procedure Details: growth inhibitors of H69AR lung tumor, primary screen, human, duplicate replicates (AID 580);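 note: 100% = mean luminescence of untreated wells and 0% = no signal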
# Test Conditions: H69AR lung tumor cells viability, ATP luminescence, 72 h; at 10 µM; hits give low values
# viability per record follows
Entry rule: numbers only, all in %.

These solved cases illustrate the format of a correct answer.
Compound	Endpoint	Endpoint Value
CN1CCN2c3ccccc3Cc3ccccc3C2C1 (stereo not drawn)	viability	90.2
CC1CN=C(N(C(=O)Nc2ccccc2)c2ccc(S(=O)(=O)N3CCOCC3)cc2)S1 (stereo not drawn)	viability	95.3
O=C(CCS(=O)(=O)c1cccc2nsnc12)N1CCN(Cc2ccc3c(c2)OCO3)CC1	viability	94.4

(Q) Requested field: viability. Item: O=C(NC1CC1)C1CCN(c2ccc(S(=O)(=O)N3CCOCC3)cc2)CC1
(A) 94.7

(Q) Tell me the measured viability of CN(C)S(=O)(=O)NC(c1ccccc1)c1ccccc1 , please.
(A) 105

(Q) Given the entry O=C(CN1C(=O)c2cccc3cccc1c23)N1CCN(c2ccccc2)CC1 , report its measured viability.
(A) 113

(Q) GET /values?readout=viability&item= CCn1c(SCC(=O)c2ccc(F)cc2)nnc1-c1ccoc1C
(A) 106

(Q) Please look up its viability: CCOC(=O)C1=C(c2ccccc2)NC(=O)NC1c1ccc(N(C)C)cc1 (stereo not drawn)
(A) 97.6

(Q) Suppose we examine the compound Clc1ccc(Cn2c(CN3CCCC3)nc3ccccc32)cc1 ; what viability value has been reported?
(A) 73.3

(Q) Need viability, item CC(C)[C@H](NC(=O)[C@@H]1CSCN1C(=O)OC(C)(C)C)C(=O)NCC1CCC(C(=O)O)CC1 (stereo partly drawn)
(A) 102

(Q) Tell me the measured viability of Cc1cc(C)n(C(=O)CNC(=O)C2COc3ccccc3O2)n1 (stereo not drawn) , please.
(A) 97.1

(Q) Give the measured viability of CCn1nnnc1SCC(=O)Nc1nnc(C(C)C)s1 .
(A) 92.2

(Q) Consider the compound shown here: OC(CCN1CCCCC1)(c1ccccc1)C1CCCCC1 (stereo not drawn) What is its recorded viability?
(A) 92.2

----------
# Procedure Details: Restrictive medium S. cerevisiae growth inhibition, OD615, pilot screen of yeast lifespan reduction project, restrictive growth control (AID 706);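 note: modified DeaD lifespan yeast strain shifted to restrictive glucose medium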
# Test Conditions: OD615, 48 h, at 10 µM, hits give high values
Endpoint: growth inhibition (%)
// return numeric value only (unit: %, not printed)

Molecule	Units Text	growth inhibition
COc1ccc(C2CC(c3ccc(Cl)cc3)n3nc(N)nc3N2)cc1 (configuration not stated)	%	10.7

(Q) Entry under review: O=C(CN(CC(=O)N1CCOCC1)S(=O)(=O)c1ccc(Br)s1)N1CCOCC1 . Reported growth inhibition?
(A) -2.16

(Q) I am curious: what growth inhibition value has been reported for CC(c1ccccc1)C1C(C#N)=C(N)OC2=C1C(=O)CC(C)(C)C2 (configuration not stated) ?
(A) -7.79

(Q) Could you tell me which growth inhibition is on file for CCN(C(=O)CSc1nnnn1-c1cc(C)ccc1OC)C1CCS(=O)(=O)C1 (configuration not stated) ?
(A) 4.34
